- Test Method Notes: Substrate activity at GSTZ (unknown origin) assessed as rate of drug conversion to S-(carboxymethyl)-glutathione per mg of protein
- Assay type: ADME
- Condition Label: human
Quantity Measured: K (nmol/min)
Value expressed in nmol/min; do not type the unit.

Problem: Please report the recorded K for O=C(O)CF [FLUOROACETATE] .
Solution: 172

Problem: Please report the recorded K for CC(Cl)C(=O)O (racemic) .
Solution: 1655

Problem: Please report the recorded K for CC(I)C(=O)O (racemic) .
Solution: 2532

Problem: Please report the recorded K for CC(Br)C(=O)O (racemic) .
Solution: 2142

----------
- Test Method Notes: Apparent half life in rat blood
- Type: ADME, tissue-based
Quantity Measured: half-life (h)
Value expressed in h; do not type the unit.

Problem: Please report the recorded half-life for "OC[C@@H]1CC[C@H](n2cnc3c(Br)ncnc32)O1" .
Solution: 4.67

Problem: Please report the recorded half-life for "OC[C@@H]1CC[C@H](n2cnc3c(I)ncnc32)O1" .
Solution: 28.2

Problem: Please report the recorded half-life for "OC[C@@H]1CC[C@H](n2cnc3c(Cl)ncnc32)O1" .
Solution: 4.5

Problem: Please report the recorded half-life for "OC[C@@H]1CC[C@H](n2cnc3c(F)ncnc32)O1" .
Solution: 0.0583

Measured values drawn from ChEMBL document CHEMBL4613261 for this set.
